Measurement record for PAK2 (PAK65) (Homo sapiens, UniProt Q13177); quantity recorded: IC50.
metricName: IC50

molecularstring=CCn1c(=O)c(-c2ccc(-c3noc(C)n3)nc2)cc2cnc(Nc3ccc(C4CCN(C)CC4)cc3)nc21 metricname=IC50 experimentalvalue="500 to 5000 nM"
molecularstring=CCn1c(=O)c(-c2ccc(-c3cccnc3C)cn2)cc2cnc(Nc3ccc(C4CCN(C)CC4)cc3)nc21 metricname=IC50 experimentalvalue="> 5000 nM"
molecularstring=CCn1c(=O)c(-c2ccc(-c3ccc(C)nc3F)cc2Cl)cc2cnc(Nc3ccc(C4CCN(C)CC4)c(F)c3)nc21 metricname=IC50 experimentalvalue="50 to 500 nM"
molecularstring=CCN(CC)CCc1ccc(Nc2ncc3cc(-c4ccc(-c5cnc(C)s5)cc4Cl)c(=O)n(CC)c3n2)cc1 metricname=IC50 experimentalvalue="< 50 nM"
molecularstring=CCn1c(=O)c(-c2ccc(-c3ccnc(C(=O)NC)c3)cc2Cl)cc2cnc(Nc3ccc(C4CCN(C)CC4)cc3)nc21 metricname=IC50 experimentalvalue="50 to 500 nM"

###

For reference, IC50 measured on PAK1 (Homo sapiens, UniProt Q13153):
metricName: IC50

molecule=CCOC(=O)c1nc(-c2ccc(-c3cc4cnc(Nc5ccc(N6CCN(C)CC6)cc5)nc4n(CC)c3=O)c(Cl)c2)no1 testsystem="PAK1 (Homo sapiens, UniProt Q13153)" metricname=IC50 experimentalvalue="< 50 nM"
molecule=CC(=O)N(C)c1ncccc1-c1ccc(Cl)c(-c2cc3cnc(Nc4ccc(C5CCN(C)CC5)cc4)nc3n(C)c2=O)c1 testsystem="PAK1 (Homo sapiens, UniProt Q13153)" metricname=IC50 experimentalvalue="> 5000 nM"
molecule=CCn1c(=O)c(-c2cc(C)c(-c3cccnc3)cc2Cl)cc2cnc(Nc3ccc(C4CCN(C)CC4)cc3)nc21 testsystem="PAK1 (Homo sapiens, UniProt Q13153)" metricname=IC50 experimentalvalue="< 50 nM"
molecule=CCn1c(=O)c(-c2ccc(-c3ccc(C)nc3)cc2Cl)cc2cnc(Nc3ccc(N4CCN(C)CC4)cc3)nc21 testsystem="PAK1 (Homo sapiens, UniProt Q13153)" metricname=IC50 experimentalvalue="< 50 nM"
molecule=CCn1c(=O)c(-c2ccc(-c3cccs3)cc2)cc2cnc(Nc3ccc(N4CCN(C)CC4)cc3)nc21 testsystem="PAK1 (Homo sapiens, UniProt Q13153)" metricname=IC50 experimentalvalue="50 to 500 nM"
molecule=CCn1c(=O)c(-c2ccc(-c3nnn[nH]3)cc2Cl)cc2cnc(Nc3ccc(N4CCN(C)CC4)cc3)nc21 testsystem="PAK1 (Homo sapiens, UniProt Q13153)" metricname=IC50 experimentalvalue="> 5000 nM"
molecule=CCn1c(=O)c(-c2ccc(-c3ccnc(C)c3)cc2Cl)cc2cnc(Nc3ccc(C4CCN(C)CC4)cc3)nc21 testsystem="PAK1 (Homo sapiens, UniProt Q13153)" metricname=IC50 experimentalvalue="> 5000 nM"
molecule=CCn1c(=O)c(-c2ccc(-c3noc(C)n3)cc2Cl)cc2cnc(Nc3ccc(N4CCN(C)CC4)cc3)nc21 testsystem="PAK1 (Homo sapiens, UniProt Q13153)" metricname=IC50 experimentalvalue="< 50 nM"
molecule=CCn1c(=O)c(-c2ccc(-c3ccnc(C(=O)NC)c3)cc2Cl)cc2cnc(Nc3ccc(N4CCN(C)CC4)cc3)nc21 testsystem="PAK1 (Homo sapiens, UniProt Q13153)" metricname=IC50 experimentalvalue="< 50 nM"
molecule=CCn1c(=O)c(-c2ccc(-c3ccc(F)nc3C)cc2Cl)cc2cnc(Nc3ccc(C4CCNCC4)cc3)nc21 testsystem="PAK1 (Homo sapiens, UniProt Q13153)" metricname=IC50 experimentalvalue="< 50 nM"
molecule=CCn1c(=O)c(-c2ccc(-c3cc(NC4CC4)ncn3)cc2Cl)cc2cnc(Nc3ccc(C4CCN(C)CC4)cc3)nc21 testsystem="PAK1 (Homo sapiens, UniProt Q13153)" metricname=IC50 experimentalvalue="50 to 500 nM"
molecule=CCn1c(=O)c(-c2ccc(-c3cnc(C)s3)cc2Cl)cc2cnc(Nc3ccc(CCN4CCOCC4)cc3)nc21 testsystem="PAK1 (Homo sapiens, UniProt Q13153)" metricname=IC50 experimentalvalue="50 to 500 nM"
molecule=CCn1c(=O)c(-c2ccc(-c3cccnc3F)cc2Cl)cc2cnc(Nc3ccc(C4CCNCC4)c(F)c3)nc21 testsystem="PAK1 (Homo sapiens, UniProt Q13153)" metricname=IC50 experimentalvalue="< 50 nM"
molecule=CCn1c(=O)c(-c2ccc(-c3cccnc3C)cc2C)cc2cnc(Nc3ccc(C4CCN(C)CC4)cc3)nc21 testsystem="PAK1 (Homo sapiens, UniProt Q13153)" metricname=IC50 experimentalvalue="< 50 nM"
molecule=CCn1c(=O)c(-c2ccc(-c3ccnn3C)cc2)cc2cnc(Nc3ccc(N4CCN(C)CC4)cc3)nc21 testsystem="PAK1 (Homo sapiens, UniProt Q13153)" metricname=IC50 experimentalvalue="50 to 500 nM"
molecule=CCn1c(=O)c(-c2ccc(-c3noc(C(F)(F)F)n3)cc2Cl)cc2cnc(Nc3ccc(N4CCN(C(C)C)CC4)cc3)nc21 testsystem="PAK1 (Homo sapiens, UniProt Q13153)" metricname=IC50 experimentalvalue="< 50 nM"
molecule=CN1CCC(c2ccc(Nc3ncc4cc(-c5cc(F)c(-c6cccnc6F)cc5Cl)c(=O)n(C)c4n3)cc2)CC1 testsystem="PAK1 (Homo sapiens, UniProt Q13153)" metricname=IC50 experimentalvalue="< 50 nM"
molecule=CCn1c(=O)c(-c2ccc(-c3ccc(F)nc3C)cc2Cl)cc2cnc(Nc3ccc(C4CCN(C)CC4)c(F)c3)nc21 testsystem="PAK1 (Homo sapiens, UniProt Q13153)" metricname=IC50 experimentalvalue="50 to 500 nM"
molecule=CCn1c(=O)c(-c2ccc(-c3scnc3C)cc2Cl)cc2cnc(Nc3ccc(N4CCN(C)CC4)cc3)nc21 testsystem="PAK1 (Homo sapiens, UniProt Q13153)" metricname=IC50 experimentalvalue="< 50 nM"
molecule="CCn1c(=O)c(-c2ccc(-c3cncnc3)cc2Cl)cc2cnc(Nc3ccc(C4CN(C)CCO4)cc3)nc21 (centres unmarked)" testsystem="PAK1 (Homo sapiens, UniProt Q13153)" metricname=IC50 experimentalvalue="< 50 nM"
molecule=CCn1c(=O)c(-c2ccc(-c3nccs3)cc2Cl)cc2cnc(Nc3ccc(N4CCN(C)CC4)cc3)nc21 testsystem="PAK1 (Homo sapiens, UniProt Q13153)" metricname=IC50 experimentalvalue="< 50 nM"
molecule=CCn1c(=O)c(-c2ccc(-c3noc(C)n3)cc2Cl)cc2cnc(Nc3ccc(CCN4CCOCC4)cc3)nc21 testsystem="PAK1 (Homo sapiens, UniProt Q13153)" metricname=IC50 experimentalvalue="50 to 500 nM"
molecule=CCn1c(=O)c(-c2ccc(-c3cnn(C)c3)cc2)cc2cnc(Nc3ccc(N4CCN(C)CC4)cc3)nc21 testsystem="PAK1 (Homo sapiens, UniProt Q13153)" metricname=IC50 experimentalvalue="50 to 500 nM"
molecule=CCN1CCN(c2ccc(Nc3ncc4cc(-c5ccc(-c6cncnc6)cc5Cl)c(=O)n(CC)c4n3)cc2)CC1 testsystem="PAK1 (Homo sapiens, UniProt Q13153)" metricname=IC50 experimentalvalue="< 50 nM"
molecule=CCn1c(=O)c(-c2ccc(-c3cnc(C)s3)cc2Cl)cc2cnc(Nc3ccc(CCN(C)C)cc3)nc21 testsystem="PAK1 (Homo sapiens, UniProt Q13153)" metricname=IC50 experimentalvalue="< 50 nM"
molecule=CCN1CCN(c2ccc(Nc3ncc4cc(-c5ccc(-c6cncs6)cc5Cl)c(=O)n(CC)c4n3)cc2F)CC1 testsystem="PAK1 (Homo sapiens, UniProt Q13153)" metricname=IC50 experimentalvalue="< 50 nM"
